src = ChEMBL document CHEMBL2375304

Test system: ACHN
Assay: Growth inhibition of human ACHN cells after 48 hrs by Sulforhodamine B assay
Assay type: functional
Catalogue of GI50 values
Answer format: numeric, µM implied, no suffix.

Some solved cases for reference:
| chemical.string | reported.property | test.value |
| --- | --- | --- |
| CN1CCN(c2nc(-c3ccncc3)nc3sc4c(c23)CCCCCC4)CC1 | GI50 | 7.94 |
| c1ccc(-c2nc(N3CCOCC3)c3c4c(sc3n2)CCCCCC4)nc1 | GI50 | 4.47 |

Now let's try a different one.
// GI50 value for `NNc1nc(-c2ccccn2)nc2sc3c(c12)CCCCCC3` : 4.9
